System: CYP3A
Experiment: Example 2: lurasidone pharmacokinetics during and after posaconazole (drug-drug interaction)
Assay type: in vivo
Details: human, plasma, oral, 20 mg, Obese, Day 30 (posaconazole given Days 4-17); read-out: Lurasidone elimination half-life, arithmetic mean ± S.E. (converted)
REPORTED_METRIC: half-life (h)
# unit: h | format: bare number

# half-life of O=C1[C@@H]2[C@H]3CC[C@H](C3)[C@@H]2C(=O)N1C[C@@H]1CCCC[C@H]1CN1CCN(c2nsc3ccccc23)CC1 [lurasidone] = 71

###

Assay: Plasma ranolazine pharmacokinetics before, during and after posaconazole in normal-weight and obese subjects
Format: in vivo, human
Details: human, plasma, oral, 500 mg, Day 25 (10 days after last posaconazole dose); normal-weight subjects; ranolazine 500 mg ER; mean ± SD
REPORTED_METRIC: half-life (h)
# unit: h | format: bare number

# half-life of COc1ccccc1OCC(O)CN1CCN(CC(=O)Nc2c(C)cccc2C)CC1 (stereo not shown) = 5.05

###

Assay: AUC and Cmax target safe levels of CYP3A4 substrate drugs (Table 1)
Settings: human
AUC target safe level, Percent of baseline values, listed per item
# unit: % | format: bare number

// worked examples, AUC target safe level, Percent of baseline included
{"MOLECULE": "CNC(=O)c1ccc(N2C(=S)N(c3cnc(C#N)c(C(F)(F)F)c3)C(=O)C23CCC3)cc1F [apalutamide]", "READING": 124}
{"MOLECULE": "COc1cccc(-c2c(C)n(Cc3c(F)cccc3C(F)(F)F)c(=O)n(C[C@H](NCCCC(=O)O)c3ccccc3)c2=O)c1F [elagolix sodium]", "READING": 220}
{"MOLECULE": "COc1cc2c(cc1OC)[C@H]1C[C@@H](O)[C@H](CC(C)C)CN1CC2 [[+]-α-HTBZ]", "READING": 210}
{"MOLECULE": "C[C@H](Nc1ncnc2[nH]cnc12)c1cc2cccc(Cl)c2c(=O)n1-c1ccccc1", "READING": 200}
{"MOLECULE": "C[C@@H]1CCN(C(=O)CC#N)C[C@@H]1N(C)c1ncnc2[nH]ccc12", "READING": 175}

Let us examine a further case.
# AUC target safe level, Percent of baseline of N#Cc1ccnc(N2C(=O)CC[C@H]2C(=O)N(c2cncc(F)c2)[C@H](C(=O)NC2CC(F)(F)C2)c2ccccc2Cl)c1 = 173

###

Assay: Plasma ranolazine pharmacokinetics before, during and after posaconazole in normal-weight and obese subjects
Assay type: in vivo, human
Details: human, plasma, oral, 500 mg, Day 1 (before posaconazole); obese subjects; ranolazine 500 mg ER; mean ± SD
Method: Procedures. […] On study day 2, subjects received posaconazole (300 mg delayed-release tablet twice a day), and on the mornings of days 3-15, subjects received posaconazole (300 mg delayed-release tablet daily). […] The area under the plasma concentration curve from time 0 until the last nonzero point was determined by the linear trapezoidal method. […]
REPORTED_METRIC: half-life (h)
# unit: h | format: bare number

# half-life of COc1ccccc1OCC(O)CN1CCN(CC(=O)Nc2c(C)cccc2C)CC1 (stereo not shown) [ranolazine] = 6.02

###

Test: AUC and Cmax target safe levels of CYP3A4 substrate drugs (Table 1)
Conditions: human
REPORTED_METRIC: AUC target safe level, Percent of baseline (%)
# unit: % | format: bare number

{"SUBSTANCE_SMILES": "CN(C)C(=O)N[C@H]1CC[C@H](CCN2CCN(c3cccc(Cl)c3Cl)CC2)CC1", "UNIT_OF_MEASUREMENT": "%", "READING": 400}
{"SUBSTANCE_SMILES": "CO[C@@H]1[C@H](N(C)C(=O)c2ccccc2)C[C@H]2O[C@]1(C)n1c3ccccc3c3c4c(c5c6ccccc6n2c5c31)C(=O)NC4", "UNIT_OF_MEASUREMENT": "%", "READING": 1040}
{"SUBSTANCE_SMILES": "COc1cc2c(cc1OC)CC(=O)N(CCCN(C)C[C@H]1Cc3cc(OC)c(OC)cc31)CC2", "UNIT_OF_MEASUREMENT": "%", "READING": 210}

Let us examine a further case.
# AUC target safe level, Percent of baseline of O=c1ccc2ccc(OCCCCN3CCN(c4cccc5sccc45)CC3)cc2[nH]1 = 200
